assay remarks: recombinant UMI read abundance after kanamycin selection (control-corrected) (log10(CPM+1)); higher = more efficient recombination; extreme values may be limits of the assay; sequences stand for … in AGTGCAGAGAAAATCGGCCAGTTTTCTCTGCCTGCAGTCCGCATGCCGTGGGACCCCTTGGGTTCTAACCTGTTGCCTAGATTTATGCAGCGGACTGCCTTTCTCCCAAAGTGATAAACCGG…AGGTTGGTTTCACT; site = the 11-nt donor;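 further: IS621 bridge recombinase in Escherichia coli cells against a fixed T5 target plasmid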
Form field: recombinant UMI read abundance (log10) (one value per entry).
// no unit string in output, number only

[[record]]
biosequence = "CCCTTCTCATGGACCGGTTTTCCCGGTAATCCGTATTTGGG (site CCCTTCTCTCA)"
readout_label = "recombinant UMI read abundance (log10)"
measured = 0.0118

[[record]]
biosequence = "CCCAGTCCATGGACCGGTTTTCCCGGTAATCCGTATTTGCA (site CCCAGTCCTTG)"
readout_label = "recombinant UMI read abundance (log10)"
measured = 0

[[record]]
biosequence = "AAAGATCCATGGACCGGTTTTCCCGGTAATCCGTATTTGGC (site AAAGATCCTGC)"
readout_label = "recombinant UMI read abundance (log10)"
measured = 0

[[record]]
biosequence = "TTAATAGCATGGACCGGTTTTCCCGGTAATCCGTATTTGAT (site TTAATAGCTAT)"
readout_label = "recombinant UMI read abundance (log10)"
measured = 1.76


(Q) I am curious: what recombinant UMI read abundance (log10) value has been reported for AAAAAGGCATGGACCGGTTTTCCCGGTAATCCGTATTTGCT (site ACAAAGGCTAG) ?
(A) 1.19
